Biological target: T1, human RXFP1 (human, UniProt Q9HBX9 1-757)
T1 sequence (looked up): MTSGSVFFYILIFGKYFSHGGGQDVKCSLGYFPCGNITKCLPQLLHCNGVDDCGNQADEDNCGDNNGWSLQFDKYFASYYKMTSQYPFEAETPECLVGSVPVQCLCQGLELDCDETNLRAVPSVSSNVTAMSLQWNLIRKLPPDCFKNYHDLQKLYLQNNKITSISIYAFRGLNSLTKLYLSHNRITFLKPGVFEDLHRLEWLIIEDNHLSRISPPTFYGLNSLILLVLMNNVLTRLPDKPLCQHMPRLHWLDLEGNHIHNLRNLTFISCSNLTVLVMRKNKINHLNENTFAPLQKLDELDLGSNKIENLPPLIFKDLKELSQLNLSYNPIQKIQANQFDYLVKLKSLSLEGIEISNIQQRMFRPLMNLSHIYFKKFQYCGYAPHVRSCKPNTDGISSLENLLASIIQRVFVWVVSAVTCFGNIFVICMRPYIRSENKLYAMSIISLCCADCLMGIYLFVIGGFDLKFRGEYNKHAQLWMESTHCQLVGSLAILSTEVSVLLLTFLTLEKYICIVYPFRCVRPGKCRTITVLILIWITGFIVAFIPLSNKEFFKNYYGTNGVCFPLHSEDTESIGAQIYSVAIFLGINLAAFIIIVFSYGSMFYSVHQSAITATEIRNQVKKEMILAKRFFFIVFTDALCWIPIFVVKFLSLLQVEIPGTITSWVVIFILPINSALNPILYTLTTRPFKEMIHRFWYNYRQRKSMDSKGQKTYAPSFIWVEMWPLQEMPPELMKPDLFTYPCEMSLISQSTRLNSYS
Experiment: cell-based or functional assay
Measured Potency (cAMP, transient hRXFP1 in HEK293) values are reported for all entries that follow.
// units = pM; emit number, no label

binder="SEQ ID NO: 97 (Fc fusion) DKTHTCPPCPAPEAAGGPSVFLFPPKPKDTLMISRTPEVTCVVVDVSHEDPEVKFNWYVDGVEVHNAKTKPREEQYNSTYRVVSVLTVLHQDWLNGKEYKCKVSNKALAAPIEKTISKAKGQPREPQVYTLPPSRDELTKNQVSLTCLVKGFYPSDIAVEWESNGQPENNYKTTPPVLDSDGSFFLYSKLTVDKSRWQQGNVFSCSVLHEALHSHYTQKSLSLSPGEGGSDSWQEEVIKLCGRELVRAQIAICGKSTASDAAGAQAQAGARQLYSALANKCCHVGCTKRSLAQFC" quantitative_result=1300

Tell me its Potency (cAMP, transient hRXFP1 in HEK293) given SEQ ID NO: 90 (Fc fusion) DKTHTCPPCPAPEAAGGPSVFLFPPKPKDTLMISRTPEVTCVVVDVSHEDPEVKFNWYVDGVEVHNAKTKPREEQYNSTYRVVSVLTVLHQDWLNGKEYKCKVSNKALAAPIEKTISKAKGQPREPQVYTLPPSRDELTKNQVSLTCLVKGFYPSDIAVEWESNGQPENNYKTTPPVLDSDGSFFLYSKLTVDKSRWQQGNVFSCSVLHEALHSHYTQKSLSLSPGKGGSDSWQEEVIKLCGRELVRAQIAICGKSTASDAAGAQAQAGARQLYSALANKCCHVGCTKRSLAQFC as the entry.
600

src = patent US20250333467A1
